Test system: MS2 coat protein
Assay: apparent KD of MS2 coat protein; designed switch direction (-1 OFF switch, 1 ON switch): 1; higher = weaker reporter binding
Settings: input ligand: none
Quick reference for apparent KD of MS2 coat protein among some sequences
The answer consists of two parts: a number and, after it, its unit.

Worked examples follow.
AUUGGGUAACGAGGAUAUCGUAUUUGUUUGUUUCGAGAAGGCGUUAUAGUUUCUUUCUAUUGUUACAUGAGGAUCACCCAUGUU [JR_SSNG1_Sub052] (Eterna round: R96, puzzle: Same State NG 1) : 19.9 nM
GCCAACACAUGAGGAUAUGGCACCUUAUUGGUGCCAGAAGGCAUGUCUAUUGACAUGAGGAUCACCCAUGUAUUAUAGUUGGCA [Fiskers NG1ss - 14] (Eterna round: R96, puzzle: Same State NG 1) : 1210 nM
AAACAUGAGCGAGGAUAUGCGGAGGAUUACCCUGUAGAAGGCGCAUGUAAAACAACAUGAGGAUCACCCAUGUCAUGUACAUGU (Eterna round: R96, puzzle: Same State NG 1) : 226 nM
GUAAUCGUUAUAGGAUAUCAUGAGGAUUACCCAUGAGAAGGGUGAUCUCGAUCCAUAUUCAGAAAAUGAAUGUGGAUAGAUUGC [Omei NG1 A v2] (Eterna round: R96, puzzle: Same State NG 1) : 1150 nM

Prompt: Which apparent KD of MS2 coat protein value belongs to GUCCGUAUCACAGGAUAUCCUAGUCAUGAUCUAGGAGAAGGGUGGCCACAUGAGGAUCACCCAUGUGAAGUGCCAGAGGCACGA [MOD2 Xexeraed] (Eterna round: R96, puzzle: Same State NG 1) ?
Response: 149 nM

====

Tested on: MS2 coat protein
Test: apparent KD of MS2 coat protein; higher = weaker reporter binding
Settings: Eterna round: R107; input ligand: tryptophan 2.4 mM
Measured attribute: apparent KD of MS2 coat protein (nM)
A number alone suffices; assume nM.

Prompt: Which measured apparent KD of MS2 coat protein belongs to AAAAGAGGUGGAAGGAGCGGGAGACAUGAGGAUCACCCAUGUGAAGUGACGAAAGGAUCAUCCCAGGUAGGUCGCCAUGUCGAAA [csstmullin] , tested on MS2 coat protein?
Response: 21.7

Prompt: How about this sequence: AUCGUACCUGAUGAUACCAGCAUGUGCUCGUAACAUGAGGAUCACCCAUGUGAUCAGUGAUGCCCUUGGCAGCAUGAUCGGUGCA [Same State - Theophylline B (Freestyle 18)]
Response: 167

Prompt: How about this sequence: ACAUGAGGGAUGGAUACCAGCGACAUGAGGAUCACCCAUGUAUGAGGAUCACCCAUGUUAUGCCCUUGGCAGCCACAAACAUGAG [UUYMULLIN]
Response: 16.9

Prompt: How about this sequence: CUCCCGUGGUCGGCCGCCACUGGAGGCCUUGCGCGACAUGAGGAUCACCCAUGUGUGCCCGGCGUCAGGACCGGGAUCGCGUGAG [#1 Same State - Tryptophan B Attempt #12 (HarryS)]
Response: 13.8

Prompt: How about this sequence: UGUAACAUGAGGAUCACCCAUGUGAGUGAUACCAGAUUAGUAGUAGUCCCUUGGCAGCAUAUUGGGCGAGUGUAUAGUCUAUGCG [Same State - Theophylline A (Freestyle 10)]
Response: 205

Prompt: How about this sequence: UAAUAAAUAAAUCCAAGGUGAAGGUCAGAUACCAGCCAGAUAACUGGCCCUUGGCAGCUGAAUAAACUUGAGGAUCACCCAGGUA [TheoAS 27 #OpenEnded #MS2Late #AlternativeMS2]
Response: 55.6

Prompt: How about this sequence: CUUGUGGGCGGAAGGAGCGCGAUUACAUAACAUGAGGAUCACCCAUGUAAGAAAUUAUUCAUGCAGGUAGGUCGCCGUUCGUGGG [Same State Arginine B GF9]
Response: 25.2

Prompt: How about this sequence: AAUCAUAACUGAAGGAGCGUCUAUAUUACAUGAGGAUCACCCAUGUUUAUAUGGUAUUAUAGACAGGUAGGUCGCAGAUUUUUUA [JR_SSArginiB_Sub017]
Response: 15.8

Prompt: How about this sequence: GGGUAAGAUCCGGAUACCAGCGAACAUGAGGAUCACCCAUGUGACCUAAGAUAGGCUAAACGCCCUUGGCAGCCGAAAUAGCGUU [Same State Theophylline B GF 5]
Response: 39.5

Prompt: How about this sequence: ACGUCCGGUUUACUCGUGGGCAUGGUCGAUACCAGUAUUUUAAUCUACCCUUGGCAGCGACAUGAGGAUCACCCAUGUGCGAAGA [XTheo A #21]
Response: 22.8

Prompt: How about this sequence: UUUUAGCAUCGAAGGAGCGCUGGUAGGUGACACAUGAGGAUCACCCAUGUGCUCCUUGCCGAGCAGGUAGGUCGCGAUGCUAUUU [SSAB NP+V+V2 #8]
Response: 46.2

Where do the numbers come from? From the supplement of paper PMC9170038.
